# Read-out: Interleukin-1 alpha (IL1a), IL1A (gene 3552)
# ASSAY METHOD TEXT: BSK_KF3CT_IL1a: BioMAP Diversity Plus: KF3CT Assay for Interleukin-1 alpha (IL1a) Biomarker Activity (AID 2283070)
# TEST PARAMETERS: primary human keratinocytes with fibroblasts; actives raise or lower the signal
# Experimental: BSK_KF3CT is a cell-based, multiplexed-readout assay that uses keratinocytes and foreskin fibroblasts, a human skin primary cell co-culture, with measurements taken at 24 hours after chemical dosing in a 96-well plate.BSK_KF3CT_IL1a is an assay component measured in the BSK_KF3CT assay. It measures IL-1a antibody related to regulation of gene expression using ELISA technology.Data from the assay component BSK_KF3CT_IL1a was analyzed into 1 assay endpoint. […]
The source made the active and inactive calls. Rule for the calls: active = hit-call score of the fitted dose curve at least 0.9, where 1 is the maximum; inactive = score below 0.9.
OBSERVABLE: AC50

c1ccc(CCc2ccccc2)cc1 = 25.2 µM (active)
c1ccc(Oc2ccccc2)cc1 = 20 µM (active)
O=C1OC2(c3ccccc31)c1ccc(O)c(Br)c1Oc1c2ccc(O)c1Br = 20 µM (active)
COc1ccc(OC)c(N=Nc2c(O)ccc3ccccc23)c1 = 8.38 µM (active)
CC(=O)c1c(C)c([N+](=O)[O-])c(C(C)(C)C)c([N+](=O)[O-])c1C = inactive

Okay, now this compound:
Exam item: Which AC50 value is on record for C=C(C)C(=O)OCCOCCOCCOCCOC(=O)C(=C)C ?
Marked response: inactive

---

# EXPERIMENTAL TARGET: Aryl hydrocarbon receptor (Homo sapiens) (UniProt P35869)
# Sequence (P35869 whole entry, looked up): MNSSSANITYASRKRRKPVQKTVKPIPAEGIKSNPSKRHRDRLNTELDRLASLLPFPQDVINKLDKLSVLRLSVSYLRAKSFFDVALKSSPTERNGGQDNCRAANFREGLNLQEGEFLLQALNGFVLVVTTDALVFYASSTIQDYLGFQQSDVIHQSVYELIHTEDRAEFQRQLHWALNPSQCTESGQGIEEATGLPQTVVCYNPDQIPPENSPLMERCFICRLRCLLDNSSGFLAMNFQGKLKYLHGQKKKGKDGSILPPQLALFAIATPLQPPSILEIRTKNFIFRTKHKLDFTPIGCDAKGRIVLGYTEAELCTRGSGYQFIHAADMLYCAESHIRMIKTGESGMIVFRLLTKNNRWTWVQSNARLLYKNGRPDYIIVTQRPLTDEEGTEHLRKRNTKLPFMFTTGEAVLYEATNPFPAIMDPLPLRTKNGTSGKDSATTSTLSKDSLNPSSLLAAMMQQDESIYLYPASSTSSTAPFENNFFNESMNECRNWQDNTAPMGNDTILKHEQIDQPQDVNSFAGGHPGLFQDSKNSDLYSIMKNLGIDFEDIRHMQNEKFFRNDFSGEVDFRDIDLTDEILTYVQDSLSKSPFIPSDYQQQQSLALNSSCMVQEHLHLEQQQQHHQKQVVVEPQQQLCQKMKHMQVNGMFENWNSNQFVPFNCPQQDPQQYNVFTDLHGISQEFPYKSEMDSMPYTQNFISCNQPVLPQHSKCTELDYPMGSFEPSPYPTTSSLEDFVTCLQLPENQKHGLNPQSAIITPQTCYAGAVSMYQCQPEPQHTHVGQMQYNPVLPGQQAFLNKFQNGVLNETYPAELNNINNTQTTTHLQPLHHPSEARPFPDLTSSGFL
# ASSAY METHOD TEXT: ATG_Ahr_CIS: Attagene CIS-FACTORIAL HepG2 Assay for human Aryl Hydrocarbon Receptor (Ahr) (AID 2282930)
# TEST PARAMETERS: HepG2 AhR cis-factorial reporter transcription; actives raise or lower the signal
The source made the active and inactive calls. Rule for the calls: active = hit-call score of the fitted dose curve at least 0.9, where 1 is the maximum; inactive = score below 0.9.
Please state which outcome applies, choosing from True (active), False (inactive)

C=CCN(CC=C)CC=C = False
CC1(C)C2=CCCC(C)(C)[C@]23CC[C@H]1C3 = False
O=c1[nH]c(=O)c2cn[nH]c2[nH]1 = False
Cc1ncc[nH]1 = False
Cc1occc(=O)c1OC(=O)C(C)C = False

Exam item: Identify the outcome logged in this assay for the compound shown: CCCCC(CC)(CO)CO
Marked response: False

Exam item: Identify the outcome logged in this assay for the compound shown: Cc1c(C2(c3cc(Br)c(O)c(Br)c3C)OS(=O)(=O)c3ccccc32)cc(Br)c(O)c1Br
Marked response: True

Exam item: Identify the outcome logged in this assay for the compound shown: CN(C)CCOC(C)(c1ccccc1)c1ccccn1 (stereo not given)
Marked response: False

Exam item: Identify the outcome logged in this assay for the compound shown: O=C1c2ccccc2C(=O)c2c(O)ccc(O)c21
Marked response: True

Exam item: Identify the outcome logged in this assay for the compound shown: O=C1NC2NC(=O)NC2N1 (stereo not given)
Marked response: False

---

# EXPERIMENTAL TARGET: Aryl hydrocarbon receptor (Homo sapiens)
# ASSAY METHOD TEXT: ATG_Ahr_CIS: Attagene CIS-FACTORIAL HepG2 Assay for human Aryl Hydrocarbon Receptor (Ahr) (AID 2282930)
# TEST PARAMETERS: HepG2 AhR cis-factorial reporter transcription; actives raise or lower the signal
Activity calls are given as the source filed them. How the source made its calls: active means hit-call score of the fitted dose curve at least 0.9, where 1 is the maximum; inactive means score below 0.9.
Please state which outcome applies, choosing from 1.0 (active), 0.0 (inactive)

CSc1c(Cl)c(Cl)c(Cl)c(Cl)c1Cl = 0.0
CC1(C)O[C@@H]2[C@@H](CO[C@@]3(COS(N)(=O)=O)OC(C)(C)O[C@@H]23)O1 = 0.0
C=C[Si]1(C)O[Si](C)(C=C)O[Si](C)(C=C)O[Si](C)(C=C)O1 (configuration not stated) = 0.0
CC(C)c1ccccc1O = 1.0
CC(=O)OCCCc1ccccc1 = 0.0
COc1ccccc1[N+](=O)[O-] = 0.0

We next turn to a different molecule, shown below.
Exam item: Identify the outcome logged in this assay for the molecule shown: CC(C)(C)c1ccc(C(=O)O)cc1
Marked response: 0.0
